The measurements presented in this section are drawn from PubChem BioAssay (NCATS).

system: C33A; experiment: Primary qHTS to identify gynecologic anti-cancer compounds using libraries of approved drugs and bioactive compounds (AID 1345084); settings: Gynecologic cancer cell panel viability, ATPlite luminescence, 48 h; series mostly up to 57.5 µM; also: nearly all actives have a fitted effect of over 55% in size
Results filed as inconclusive are left out. Active and inactive are the calls of the source. Calls follow the shape of the dose curve; as a rule, active = well fitted cell-killing curve with a large enough effect; inconclusive = small, poorly fitted or top-dose-only effect, or effect the other way; inactive = flat fitted curve, though single readings scatter.
Labels: true (active), false (inactive)

Compound	Discrete label
COc1ccc2c(c1)CCCC2=O	false
Cc1[nH]cnc1-c1ccc(Cl)cc1	false
Oc1ccccc1	false
CCCCCCCCCCCCCCCC[N+](C)(C)Cc1ccccc1	true
CC(=O)N(CC(=O)N(C)C)c1ccccc1	false
CC(=O)OCC(=O)[C@@]1(O)CCC2C3CCC4=CC(=O)CC[C@]4(C)C3[C@@H](O)C[C@@]21C (some centres undefined)	false
O=C(c1ccco1)N1CCNCC1	false
O=C(O)CCC(=O)OC[C@@H](NC(=O)C(Cl)Cl)[C@H](O)c1ccc([N+](=O)[O-])cc1	false
CC(COc1ccccc1)NN (centres undefined)	false
CCOc1c(N2CCOCC2)cnn(C)c1=O	false
C[C@@H](C1=C(CCN(C)C)Cc2ccccc21)c1ccccn1	false
OCCOCCN1CCN(C(c2ccccc2)c2ccc(Cl)cc2)CC1 (centres undefined)	false
CCCOc1ccc2c(c1)CC[C@@H]1[C@@H]2CC[C@]2(C)C(OC)CC[C@@H]12 (some centres undefined)	false
CCCc1c2oc(C(=O)O)cc(=O)c2cc2c(=O)cc(C(=O)O)n(CC)c12	false
CCOCCn1c(C2CCN(CCc3ccc(C(C)(C)C(=O)O)cc3)CC2)nc2ccccc21	false
C[C@@H](O[C@H]1OCCN(Cc2n[nH]c(=O)[nH]2)[C@H]1c1ccc(F)cc1)c1cc(C(F)(F)F)cc(C(F)(F)F)c1	false
O=c1[nH]c2ccccc2c(=O)n1CCCl	false
Oc1ccccc1-c1nnco1	false
N#CC1(c2ccc(F)cc2)CCC(=O)CC1	false

====

test: qHTS of pediatric cancer cell lines to identify multiple opportunities for drug repurposing: Primary screen for MG 63 (6-TG R) cells (AID 1347105); settings: MG 63 (6-TG R) viability, CellTiter-Glo, 48 h; series mostly up to 46 µM; also: nearly all actives have a fitted effect of over 50% in size; also: potency is read from the fitted curve at half-maximal effect
Records with an inconclusive call do not appear. The source made the active and inactive calls. Calls come from the whole dose curve; as a rule, active = well fitted cell-killing curve with a large enough effect; inconclusive = small, poorly fitted or top-dose-only effect; inactive = no such curve, though single readings can be large or run the other way.

Compound	Potency
COC(=O)/C=C(/C)N	inactive
CO/N=C(/C(=O)N[C@@H]1C(=O)N2C(C(=O)[O-])=C(C[n+]3ccn4ncccc43)CS[C@H]12)c1nsc(N)n1	inactive
CCN(CC)CCN	inactive
Cc1coc2ccccc2c1=O	inactive
COc1cc2c(cc1OC)CN(C(=O)[C@H](C)N[C@@H](CCc1ccccc1)C(=O)O)[C@H](C(=O)O)C2	inactive
CN(C)CCN1CCN(c2cccc(Cl)c2)C1=O	inactive
CO[C@]1(NC(=O)CSC(F)F)C(=O)N2C(C(=O)O)=C(CSc3nnnn3CCO)CO[C@H]21	inactive
CC1(C)OC(=O)Nc2ccc(Br)cc21	inactive
CCCCN(CCCC)C(C(N)=O)c1ccc(OC)cc1 (centres undefined)	inactive
COc1ccc(/C(C)=C/C(=O)O)c(OC)c1	inactive
O=C(COCCOCCOCC(=O)Nc1c(I)cc(I)c(C(=O)O)c1I)Nc1c(I)cc(I)c(C(=O)O)c1I	inactive
O=C(Nc1ccc(Cl)cc1)Nc1ccc(Cl)c(C(F)(F)F)c1	21.1 µM (active)
CCCCCOc1ccccc1/C(=C\SC)n1ccnc1	inactive
C[N+]1(C)CCC(OC(=O)C(O)(c2ccccc2)C2CCCC2)C1 (centres undefined)	inactive
